B1: DnaJ homolog subfamily C member 5, residues 16 to 77; numbered along this chain, Q9H3Z4 (parent)
chain: LYHVLGLDKNATSDDIKKSYRKLALKYHPDKNPDNPEAADKFKEINNAHAILTDATKRNIYD

- Variants of: B1
- ASSAY_COMMENT: abundance fitness (aPCA) (normalised: wild type 0, dead -1); higher = more abundant; growth selection in yeast, the domain comes from the species named
- ASSAY_CONTEXT: Homo sapiens
Respond with true (1) for abundance fitness values of -0.3 and above, false (0) for values below.

[
  {
    "VARIANT_IDENTIFIER": "F42N",
    "ANSWER_LABEL": "true (1)"
  },
  {
    "VARIANT_IDENTIFIER": "K9F",
    "ANSWER_LABEL": "true (1)"
  },
  {
    "VARIANT_IDENTIFIER": "H28R",
    "ANSWER_LABEL": "true (1)"
  },
  {
    "VARIANT_IDENTIFIER": "A24S",
    "ANSWER_LABEL": "true (1)"
  },
  {
    "VARIANT_IDENTIFIER": "K31M",
    "ANSWER_LABEL": "false (0)"
  },
  {
    "VARIANT_IDENTIFIER": "K9M",
    "ANSWER_LABEL": "false (0)"
  },
  {
    "VARIANT_IDENTIFIER": "L1R",
    "ANSWER_LABEL": "false (0)"
  },
  {
    "VARIANT_IDENTIFIER": "L25M",
    "ANSWER_LABEL": "true (1)"
  },
  {
    "VARIANT_IDENTIFIER": "K57G",
    "ANSWER_LABEL": "false (0)"
  },
  {
    "VARIANT_IDENTIFIER": "A39M",
    "ANSWER_LABEL": "true (1)"
  },
  {
    "VARIANT_IDENTIFIER": "L52S",
    "ANSWER_LABEL": "false (0)"
  },
  {
    "VARIANT_IDENTIFIER": "D30F",
    "ANSWER_LABEL": "false (0)"
  },
  {
    "VARIANT_IDENTIFIER": "N46G",
    "ANSWER_LABEL": "true (1)"
  },
  {
    "VARIANT_IDENTIFIER": "L1N",
    "ANSWER_LABEL": "true (1)"
  },
  {
    "VARIANT_IDENTIFIER": "L1K",
    "ANSWER_LABEL": "true (1)"
  },
  {
    "VARIANT_IDENTIFIER": "A39E",
    "ANSWER_LABEL": "true (1)"
  },
  {
    "VARIANT_IDENTIFIER": "K57I",
    "ANSWER_LABEL": "false (0)"
  },
  {
    "VARIANT_IDENTIFIER": "N35K",
    "ANSWER_LABEL": "true (1)"
  },
  {
    "VARIANT_IDENTIFIER": "A38R",
    "ANSWER_LABEL": "true (1)"
  },
  {
    "VARIANT_IDENTIFIER": "D8F",
    "ANSWER_LABEL": "false (0)"
  },
  {
    "VARIANT_IDENTIFIER": "Y2R",
    "ANSWER_LABEL": "false (0)"
  },
  {
    "VARIANT_IDENTIFIER": "A38K",
    "ANSWER_LABEL": "false (0)"
  },
  {
    "VARIANT_IDENTIFIER": "Y27T",
    "ANSWER_LABEL": "true (1)"
  },
  {
    "VARIANT_IDENTIFIER": "F42H",
    "ANSWER_LABEL": "false (0)"
  },
  {
    "VARIANT_IDENTIFIER": "Y2L",
    "ANSWER_LABEL": "false (0)"
  },
  {
    "VARIANT_IDENTIFIER": "I51S",
    "ANSWER_LABEL": "true (1)"
  },
  {
    "VARIANT_IDENTIFIER": "V4P",
    "ANSWER_LABEL": "false (0)"
  },
  {
    "VARIANT_IDENTIFIER": "H49M",
    "ANSWER_LABEL": "true (1)"
  },
  {
    "VARIANT_IDENTIFIER": "Y2M",
    "ANSWER_LABEL": "false (0)"
  },
  {
    "VARIANT_IDENTIFIER": "E37C",
    "ANSWER_LABEL": "true (1)"
  },
  {
    "VARIANT_IDENTIFIER": "K26L",
    "ANSWER_LABEL": "true (1)"
  },
  {
    "VARIANT_IDENTIFIER": "T56G",
    "ANSWER_LABEL": "true (1)"
  },
  {
    "VARIANT_IDENTIFIER": "D34K",
    "ANSWER_LABEL": "true (1)"
  },
  {
    "VARIANT_IDENTIFIER": "Y61Q",
    "ANSWER_LABEL": "true (1)"
  },
  {
    "VARIANT_IDENTIFIER": "A50I",
    "ANSWER_LABEL": "false (0)"
  },
  {
    "VARIANT_IDENTIFIER": "P33T",
    "ANSWER_LABEL": "true (1)"
  },
  {
    "VARIANT_IDENTIFIER": "A11R",
    "ANSWER_LABEL": "false (0)"
  },
  {
    "VARIANT_IDENTIFIER": "H49S",
    "ANSWER_LABEL": "true (1)"
  },
  {
    "VARIANT_IDENTIFIER": "T53R",
    "ANSWER_LABEL": "true (1)"
  },
  {
    "VARIANT_IDENTIFIER": "I60T",
    "ANSWER_LABEL": "true (1)"
  },
  {
    "VARIANT_IDENTIFIER": "A48P",
    "ANSWER_LABEL": "false (0)"
  },
  {
    "VARIANT_IDENTIFIER": "A11W",
    "ANSWER_LABEL": "false (0)"
  },
  {
    "VARIANT_IDENTIFIER": "A55F",
    "ANSWER_LABEL": "false (0)"
  },
  {
    "VARIANT_IDENTIFIER": "K18W",
    "ANSWER_LABEL": "true (1)"
  },
  {
    "VARIANT_IDENTIFIER": "Y61C",
    "ANSWER_LABEL": "true (1)"
  }
]
